- target entity: Nav1.6 (Homo sapiens, UniProt Q9UQD0)
- Sequence (Q9UQD0 whole entry): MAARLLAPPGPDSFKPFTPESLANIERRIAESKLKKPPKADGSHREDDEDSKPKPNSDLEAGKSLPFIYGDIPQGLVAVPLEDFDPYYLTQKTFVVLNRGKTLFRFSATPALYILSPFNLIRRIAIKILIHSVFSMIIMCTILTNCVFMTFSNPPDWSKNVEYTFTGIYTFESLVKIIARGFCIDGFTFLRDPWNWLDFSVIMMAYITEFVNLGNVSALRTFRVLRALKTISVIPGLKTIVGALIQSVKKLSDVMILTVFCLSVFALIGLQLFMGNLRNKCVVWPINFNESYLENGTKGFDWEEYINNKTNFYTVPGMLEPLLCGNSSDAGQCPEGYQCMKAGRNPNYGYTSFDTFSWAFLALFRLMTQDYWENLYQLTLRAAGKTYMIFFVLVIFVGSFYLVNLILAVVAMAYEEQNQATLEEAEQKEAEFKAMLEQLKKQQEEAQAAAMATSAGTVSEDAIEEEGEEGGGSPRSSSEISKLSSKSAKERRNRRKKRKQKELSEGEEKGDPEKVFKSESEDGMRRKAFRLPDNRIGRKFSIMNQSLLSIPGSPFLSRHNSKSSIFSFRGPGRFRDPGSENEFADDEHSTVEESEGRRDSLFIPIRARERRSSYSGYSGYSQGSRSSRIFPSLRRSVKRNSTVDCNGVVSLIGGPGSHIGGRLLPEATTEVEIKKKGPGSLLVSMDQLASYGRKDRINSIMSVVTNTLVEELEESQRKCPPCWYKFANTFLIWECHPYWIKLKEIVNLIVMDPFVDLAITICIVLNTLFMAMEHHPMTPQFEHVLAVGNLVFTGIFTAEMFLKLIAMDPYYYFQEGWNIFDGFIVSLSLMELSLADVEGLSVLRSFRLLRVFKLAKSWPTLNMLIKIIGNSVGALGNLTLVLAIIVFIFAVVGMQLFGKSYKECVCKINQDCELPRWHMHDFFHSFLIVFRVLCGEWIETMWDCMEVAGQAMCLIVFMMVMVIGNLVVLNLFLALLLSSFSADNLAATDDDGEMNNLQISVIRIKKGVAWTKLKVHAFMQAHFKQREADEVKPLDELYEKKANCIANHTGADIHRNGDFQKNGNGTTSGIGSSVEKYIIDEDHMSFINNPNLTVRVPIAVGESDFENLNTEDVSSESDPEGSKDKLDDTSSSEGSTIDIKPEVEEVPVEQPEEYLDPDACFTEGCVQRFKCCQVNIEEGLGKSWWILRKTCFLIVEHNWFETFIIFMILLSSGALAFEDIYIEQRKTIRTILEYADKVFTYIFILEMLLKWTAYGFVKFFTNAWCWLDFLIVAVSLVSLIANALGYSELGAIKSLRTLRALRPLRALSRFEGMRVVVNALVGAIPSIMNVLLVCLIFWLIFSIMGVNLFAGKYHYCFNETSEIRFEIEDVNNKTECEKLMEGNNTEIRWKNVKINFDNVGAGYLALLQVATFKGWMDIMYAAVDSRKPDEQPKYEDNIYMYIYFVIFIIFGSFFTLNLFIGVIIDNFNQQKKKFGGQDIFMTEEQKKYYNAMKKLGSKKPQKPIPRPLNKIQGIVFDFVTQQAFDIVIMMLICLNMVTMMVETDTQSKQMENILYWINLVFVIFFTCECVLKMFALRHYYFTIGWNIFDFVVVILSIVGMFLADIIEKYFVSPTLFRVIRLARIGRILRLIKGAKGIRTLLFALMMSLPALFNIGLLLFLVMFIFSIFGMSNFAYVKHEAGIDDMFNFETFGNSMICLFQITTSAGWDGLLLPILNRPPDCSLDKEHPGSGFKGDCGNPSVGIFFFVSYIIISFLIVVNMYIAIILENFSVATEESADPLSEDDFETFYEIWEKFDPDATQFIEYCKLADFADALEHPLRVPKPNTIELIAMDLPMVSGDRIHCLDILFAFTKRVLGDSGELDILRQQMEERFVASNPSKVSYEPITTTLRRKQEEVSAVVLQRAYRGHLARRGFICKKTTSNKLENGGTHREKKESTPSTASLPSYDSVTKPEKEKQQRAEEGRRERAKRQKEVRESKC
- method notes: Nav two-pulse protocol, IonWorks Quattro electrophysiology
- Type: cell-based
- setup conditions: -120 mV to 0 mV, compound incubated 300 s, read-out: Nav1.6 Tonic
pIC50: −log10 of the molar value.
What pIC50 was measured for each of the following?

The reported value for CC(C)CSc1cccc(CN2CCC(C(=O)OCc3ccccn3)C2)c1 (centres unmarked) in terms of pIC50 is < 4.70

The reported value for CCNC(=O)C1(C)CCN(Cc2cccc(OC(F)(F)F)c2)C1 (centres unmarked) in terms of pIC50 is 4.70 to 5.00

The reported value for CC(C)COc1cccc(CN2CCC(c3noc(-c4cc(Br)ccn4)n3)C2)c1 (centres unmarked) in terms of pIC50 is < 4.70

The reported value for COc1cccc(-c2nc(C3CCN(Cc4cccc(OCC(C)C)c4)C3)no2)n1 (centres unmarked) in terms of pIC50 is < 4.70

The reported value for CC1(C(=O)N2CCNCC2)CCN(Cc2cccc(Oc3ccccc3)c2)C1 (centres unmarked) in terms of pIC50 is < 4.70

The reported value for O=C(NCc1ccccn1)C1CCN(Cc2ccc3c(c2)OC(F)(F)O3)C1 (centres unmarked) in terms of pIC50 is < 4.70

The reported value for COc1ccc(-c2nc(C3CCN(Cc4cccc(OCC(C)C)c4)C3)no2)nc1 (centres unmarked) in terms of pIC50 is < 4.70

The reported value for O=C(NCc1ccccn1)C1(Cl)CCN(Cc2cccc(Oc3ccccc3)c2)C1=O (centres unmarked) in terms of pIC50 is < 4.70

The reported value for CC1(C(=O)N2Cc3ccncc3C2)CCN(Cc2cccc(Oc3ccccc3)c2)C1 (centres unmarked) in terms of pIC50 is < 4.70

The reported value for COc1ccc(Oc2cccc(CN3CCC(C(=O)NCc4ccccn4)C3)c2)cc1 (centres unmarked) in terms of pIC50 is < 4.70

The reported value for O=C(NCc1cc(F)ccc1F)C1CCN(Cc2cccc(Oc3ccccc3)c2)C1 (centres unmarked) in terms of pIC50 is 4.70 to 5.00

The reported value for O=C(NCc1ccccn1)C1CCN(Cc2cccc(Oc3ccccn3)c2)C1 (centres unmarked) in terms of pIC50 is 4.70 to 5.00

The reported value for CN1CCN(C(=O)C2CCN(Cc3cccc(Oc4ccccc4)c3)C2)CC1=O (centres unmarked) in terms of pIC50 is < 4.70

The reported value for O=C(NCc1ccccn1)C1(O)CCN(Cc2cccc(Oc3ccccc3)c2)C1 (centres unmarked) in terms of pIC50 is < 4.70

The reported value for COc1ccc(Oc2cccc(CN3CCC(C(=O)NCc4ccccn4)C3)n2)cc1 (centres unmarked) in terms of pIC50 is < 4.70

The reported value for O=C(NCc1cccs1)C1CCN(Cc2cccc(Oc3ccccc3)c2)C1 (centres unmarked) in terms of pIC50 is < 4.70

The reported value for CC(C)COc1cccc(CN2CCC(c3noc(Cc4ccccn4)n3)C2)c1 (centres unmarked) in terms of pIC50 is < 4.70

The reported value for CC1(C(=O)NCc2ccccn2)CCCN(Cc2cccc(Oc3ccccc3)c2)C1=O (centres unmarked) in terms of pIC50 is 4.70 to 5.00

The reported value for CCNC(=O)C1CN(Cc2cccc(Oc3ccccc3)c2)CCO1 (centres unmarked) in terms of pIC50 is 4.70 to 5.00

The reported value for O=C(NCc1ccc(F)cc1F)C1CCN(Cc2cccc(Oc3ccccc3)c2)C1 (centres unmarked) in terms of pIC50 is 4.70 to 5.00

The reported value for O=C(NCc1ccccn1)C1(O)CCN(Cc2cccc(Oc3ccccc3)c2)C1=O (centres unmarked) in terms of pIC50 is < 4.70

The reported value for Cc1cccc(Oc2cccc(CN3CCC(C)(C(=O)NCc4ccccn4)C3)c2)c1 (centres unmarked) in terms of pIC50 is < 4.70

The reported value for COc1ccccc1Oc1cccc(CN2CCC(C(=O)NCc3ccccn3)C2)c1 (centres unmarked) in terms of pIC50 is < 4.70

The reported value for CC(C)COc1cccc(CN2CCC(c3nnc(CO)o3)C2)c1 (centres unmarked) in terms of pIC50 is < 4.70

The reported value for C[C@@]1(C(=O)NCc2ccccn2)CCN(Cc2cccc(Oc3ccccc3)c2)C1 in terms of pIC50 is < 4.70

The reported value for Cc1cccc(-c2cn(C3CCN(Cc4cccc(OCC(C)C)c4)C3)nn2)n1 (centres unmarked) in terms of pIC50 is < 4.70

The reported value for CC(C)COc1cccc(CN2CCC(c3noc(-c4ncccc4F)n3)C2)c1 (centres unmarked) in terms of pIC50 is < 4.70

The reported value for Cc1ccc(Oc2cccc(CN3CCC(F)(C(=O)NCc4ccccn4)C3)c2)cc1 (centres unmarked) in terms of pIC50 is < 4.70

The reported value for O=C(NCc1ccc(OC(F)(F)F)cc1)C1CCN(Cc2cccc(Oc3ccccc3)c2)C1 (centres unmarked) in terms of pIC50 is 4.70 to 5.00

The reported value for CC1(C(=O)NCc2ccccn2)CCN(Cc2cnc(-c3ccccc3)s2)C1 (centres unmarked) in terms of pIC50 is < 4.70

The reported value for Cc1ccc(CNC(=O)C2CCN(Cc3cccc(Oc4ccccc4)c3)C2)o1 (centres unmarked) in terms of pIC50 is < 4.70

The reported value for O=C(NCc1ccccc1F)C1CCN(Cc2cccc(Oc3ccccc3)c2)C1 (centres unmarked) in terms of pIC50 is 4.70 to 5.00

The reported value for Cc1cccnc1CNC(=O)C1CCN(Cc2cccc(OCC(F)(F)F)c2)C1 (centres unmarked) in terms of pIC50 is < 4.70

The reported value for CC1(C)Cc2cc(CN3CCC(C(=O)NCc4ccccn4)C3)ccc2O1 (centres unmarked) in terms of pIC50 is < 4.70

The reported value for Cc1ccc(CNC(=O)C2CCN(Cc3cccc(Oc4ccccc4)c3)C2)cc1 (centres unmarked) in terms of pIC50 is < 4.70
